- target or system: Polyunsaturated fatty acid lipoxygenase ALOX15 (Homo sapiens, UniProt P16050)
property: IC50

Consider the worked cases shown below.
>>> observed_measurement("CCCCNC(=O)c1cc(-c2ccccc2)sc1N")
"12.4 µM"
>>> observed_measurement("CCCCNC(=O)c1c(N)sc(-c2ccccc2)c1CCCC")
"> 50 µM"
>>> observed_measurement("CCCCNC(=O)c1c(N)sc(-c2ccc(Cl)cc2)c1CCCC")
"> 50 µM"
>>> observed_measurement("CCCCNC(=O)c1c(N)sc(-c2ccccc2)c1C")
"> 50 µM"

For the 2 compounds below, give their IC50 values.
1. CCCCNC(=O)c1cc(CCC)sc1N
2. CCCCNC(=O)c1cc(CC)sc1N

## Result
50 to 65.4 µM
50 to 65.3 µM

Would you mind listing IC50 for each of the following compounds?
1. CCCCNC(=O)c1cc(-c2ccc(Br)cc2)sc1N
2. CCCCNC(=O)c1cc(C)sc1N
3. CCCCn1c(=O)[nH]c2sc(-c3ccccc3)cc2c1=O
4. Nc1sc(-c2ccccc2)cc1C(=O)NCCCCc1ccccc1

## Result
1: 50 to 71.1 µM; 2: 50 to 354 µM; 3: 50 to 67.3 µM; 4: 50 to 81.7 µM

---

Target sequence: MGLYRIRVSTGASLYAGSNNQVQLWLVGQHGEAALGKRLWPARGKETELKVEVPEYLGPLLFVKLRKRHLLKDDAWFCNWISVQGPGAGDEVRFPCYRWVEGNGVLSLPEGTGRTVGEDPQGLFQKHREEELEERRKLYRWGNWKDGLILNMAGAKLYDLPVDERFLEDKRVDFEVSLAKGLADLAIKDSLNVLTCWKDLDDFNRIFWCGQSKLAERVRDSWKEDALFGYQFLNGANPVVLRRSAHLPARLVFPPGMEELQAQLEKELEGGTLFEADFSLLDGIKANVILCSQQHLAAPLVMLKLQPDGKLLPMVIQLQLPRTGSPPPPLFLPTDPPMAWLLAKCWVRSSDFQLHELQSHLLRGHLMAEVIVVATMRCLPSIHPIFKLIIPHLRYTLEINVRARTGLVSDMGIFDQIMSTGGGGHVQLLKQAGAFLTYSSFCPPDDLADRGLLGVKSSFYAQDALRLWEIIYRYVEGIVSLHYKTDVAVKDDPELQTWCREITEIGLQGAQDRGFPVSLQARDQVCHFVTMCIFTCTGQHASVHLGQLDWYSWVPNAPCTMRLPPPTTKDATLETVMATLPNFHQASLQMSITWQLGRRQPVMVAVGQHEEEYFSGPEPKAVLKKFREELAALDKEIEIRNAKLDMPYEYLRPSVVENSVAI
property: pKi
Numbers only, as −log10 of the molar value.

## Task Respond only with pKi recorded for `CCCCNC(=O)c1cc(-c2ccccc2)sc1N`
## Result 5.48
